molecular target: GSK 3α enzyme isoform (Homo sapiens); experiment: GSK 3α enzyme inhibition (Z-LYTE FRET); details: Table 2A; read-out: IC50 Values for Enzyme Inhibition GSK3α
Sequence (P49840 whole entry, canonical isoform): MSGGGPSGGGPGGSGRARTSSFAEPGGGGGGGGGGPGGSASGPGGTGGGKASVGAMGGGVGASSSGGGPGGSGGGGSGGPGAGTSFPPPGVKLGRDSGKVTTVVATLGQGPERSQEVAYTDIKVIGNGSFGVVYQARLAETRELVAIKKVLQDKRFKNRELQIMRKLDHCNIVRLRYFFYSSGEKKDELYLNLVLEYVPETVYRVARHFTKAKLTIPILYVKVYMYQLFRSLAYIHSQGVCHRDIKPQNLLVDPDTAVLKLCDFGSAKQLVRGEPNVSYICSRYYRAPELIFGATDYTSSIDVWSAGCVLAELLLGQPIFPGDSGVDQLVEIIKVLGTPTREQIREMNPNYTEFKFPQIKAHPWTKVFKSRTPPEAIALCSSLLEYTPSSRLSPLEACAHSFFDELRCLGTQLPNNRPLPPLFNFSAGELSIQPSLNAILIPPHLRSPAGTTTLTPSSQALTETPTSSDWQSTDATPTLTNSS
Please use the following IC50 ranges when assigning a class: lower level (below 1 µM), middle level (1 µM to below 7 µM), upper level (7 µM or more)

- compound: "COc1ccc(-n2nc(C(C)(C)C)cc2NC(=O)Nc2ccc(OCc3ccnc(Nc4cnccn4)c3)c3ccccc23)cn1"
  group: "upper level"
- compound: "Cc1cc(-n2nc(C(C)(C)C)cc2NC(=O)Nc2ccc(OCc3ccnc(Nc4cnccn4)c3)c3ccccc23)cs1 (single isomer, unassigned)"
  group: "upper level"
- compound: "Cc1ccc(-n2nc(C(C)(C)C)cc2NC(=O)Nc2ccc(OCc3ccnc(Nc4cnc(C)cn4)c3)c3ccccc23)cc1"
  group: "upper level"
- compound: "Cc1cccc(-n2nc(C(C)(C)C)cc2NC(=O)Nc2ccc(OCc3ccnc(Nc4cnccn4)c3)c3ccccc23)c1"
  group: "upper level"
- compound: "CC(=O)NCc1cnc(Nc2cc(COc3ccc(NC(=O)Nc4cc(C(C)(C)C)nn4-c4ccc(C)cc4)c4ccccc34)ccn2)cn1"
  group: "lower level"
- compound: "CC(C)(C)c1cc(NC(=O)Nc2ccc(OCc3ccnc(Nc4cncc(C5CC5)n4)c3)c3ccccc23)n(-c2ccc(CO)cc2)n1"
  group: "lower level"
- compound: "Cc1ccc(-n2nc(C(C)(C)C)cc2NC(=O)Nc2ccc(OCc3ccnc(Nc4cncc(C)n4)c3)c3ccccc23)cc1"
  group: "upper level"
- compound: "Cc1ccc(-n2nc(C(C)(C)C)cc2NC(=O)Nc2ccc(OCc3ccnc(Nc4cnc(C5CC5)cn4)c3)c3ccccc23)cc1"
  group: "upper level"
- compound: "Cc1ccc(-n2nc(C(C)(C)C)cc2NC(=O)Nc2ccc(OCc3ccnc(Nc4cnc(C(=O)N5CCOCC5)cn4)c3)c3ccccc23)cc1"
  group: "middle level"
- compound: "Cc1ccc(-n2nc(C(C)(C)C)cc2NC(=O)Nc2ccc(OCc3ccnc(Nc4cncc(CC(=O)N(C)C)n4)c3)c3ccccc23)cc1"
  group: "lower level"
- compound: "Cc1ccc(-n2nc(C(C)(C)C)cc2NC(=O)Nc2ccc(OCc3ccnc(Nc4cncc(CC(N)=O)n4)c3)c3ccccc23)cc1"
  group: "middle level"
- compound: "CC(C)c1ccc(-n2nc(C(C)(C)C)cc2NC(=O)Nc2ccc(OCc3ccnc(Nc4cnccn4)c3)c3ccccc23)cc1"
  group: "middle level"
- compound: "Cc1cc(-n2nc(C(C)(C)C)cc2NC(=O)Nc2ccc(OCc3ccnc(Nc4cncc(C5CC5)n4)c3)c3ccccc23)cs1"
  group: "middle level"
- compound: "Cc1ccc(-n2nc(C(C)(C)C)cc2NC(=O)Nc2ccc(OCc3ccnc(Nc4cnccn4)c3)c3ccccc23)cc1C"
  group: "upper level"
- compound: "COc1ccc(-n2nc(C(C)(C)C)cc2NC(=O)Nc2ccc(OCc3ccnc(Nc4cncc(C5CC5)n4)c3)c3ccccc23)cc1"
  group: "middle level"
- compound: "Cc1ccc(-n2nc(C(C)(C)C)cc2NC(=O)Nc2ccc(OCc3ccnc(Nc4cnccn4)c3)c3ccccc23)cc1C(F)(F)F"
  group: "upper level"

Hello, the source for this data is patent US11142515B2, in case you need it.
